pIC50: −log10 of the molar value.
Experimental endpoint: pIC50

*Q* Give the observed pIC50 of "C=CC(=O)Nc1ccc(C(=O)Nc2n[nH]c3ccc(-c4cncc(NC[C@@H](O)c5ccccc5)c4)cc23)cc1" for Cyclin-dependent kinase 5 (Homo sapiens, UniProt Q00535).
*A* < 5.00

###

Target: Cyclin-dependent kinase 7 (Homo sapiens, UniProt P50613)
Sequence (P50613 whole entry): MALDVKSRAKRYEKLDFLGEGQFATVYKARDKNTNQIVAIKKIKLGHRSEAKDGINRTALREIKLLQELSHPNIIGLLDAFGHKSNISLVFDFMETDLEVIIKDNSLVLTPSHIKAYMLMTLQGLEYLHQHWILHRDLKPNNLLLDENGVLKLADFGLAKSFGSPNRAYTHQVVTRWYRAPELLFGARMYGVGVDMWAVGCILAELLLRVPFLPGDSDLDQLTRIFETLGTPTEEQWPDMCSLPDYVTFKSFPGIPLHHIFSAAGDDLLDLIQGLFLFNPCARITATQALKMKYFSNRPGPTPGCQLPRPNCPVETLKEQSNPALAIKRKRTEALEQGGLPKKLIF
Experiment: Inhibition of CDK7 (unknown origin) assessed as phosphorylation of ULight 4EBP1 peptide substrate measured after 2 hrs by FRET-based LANCE Ultra KinSelect assay
pIC50: −log10 of the molar value.
Note to self: values exactly at 6 are Yes. So pIC50 at or above 6 is Yes, below is No.

*Q* Identify whether the reported pIC50 of the following compound is 6 or greater: "Cc1cncc(-c2ccc3[nH]nc(NC(=O)c4ccccc4)c3c2)c1"
*A* No

*Q* Is pIC50 at least 6? Consider "CNC(=O)c1cncc(-c2ccc3[nH]nc(NC(=O)c4ccccc4)c3c2)c1"
*A* No

*Q* Does the reported pIC50 for "C=CC(=O)Nc1ccc(C(=O)Nc2n[nH]c3ccc(-c4cncc(N[C@H](CO)c5ccccc5)c4)cc23)cc1" fall at or above the 6 mark?
*A* Yes

*Q* Threshold query (pIC50 >= 6) on "NCC(=O)Nc1cncc(-c2ccc3[nH]nc(NC(=O)c4ccccc4)c3c2)c1"
*A* No
